meta.source: patent US11965039B2

Target: Human C3 (Complement tech cat #A113c) (human, UniProt P01024 23-1663)
Sequence (P01024 23-1663 limits assumed): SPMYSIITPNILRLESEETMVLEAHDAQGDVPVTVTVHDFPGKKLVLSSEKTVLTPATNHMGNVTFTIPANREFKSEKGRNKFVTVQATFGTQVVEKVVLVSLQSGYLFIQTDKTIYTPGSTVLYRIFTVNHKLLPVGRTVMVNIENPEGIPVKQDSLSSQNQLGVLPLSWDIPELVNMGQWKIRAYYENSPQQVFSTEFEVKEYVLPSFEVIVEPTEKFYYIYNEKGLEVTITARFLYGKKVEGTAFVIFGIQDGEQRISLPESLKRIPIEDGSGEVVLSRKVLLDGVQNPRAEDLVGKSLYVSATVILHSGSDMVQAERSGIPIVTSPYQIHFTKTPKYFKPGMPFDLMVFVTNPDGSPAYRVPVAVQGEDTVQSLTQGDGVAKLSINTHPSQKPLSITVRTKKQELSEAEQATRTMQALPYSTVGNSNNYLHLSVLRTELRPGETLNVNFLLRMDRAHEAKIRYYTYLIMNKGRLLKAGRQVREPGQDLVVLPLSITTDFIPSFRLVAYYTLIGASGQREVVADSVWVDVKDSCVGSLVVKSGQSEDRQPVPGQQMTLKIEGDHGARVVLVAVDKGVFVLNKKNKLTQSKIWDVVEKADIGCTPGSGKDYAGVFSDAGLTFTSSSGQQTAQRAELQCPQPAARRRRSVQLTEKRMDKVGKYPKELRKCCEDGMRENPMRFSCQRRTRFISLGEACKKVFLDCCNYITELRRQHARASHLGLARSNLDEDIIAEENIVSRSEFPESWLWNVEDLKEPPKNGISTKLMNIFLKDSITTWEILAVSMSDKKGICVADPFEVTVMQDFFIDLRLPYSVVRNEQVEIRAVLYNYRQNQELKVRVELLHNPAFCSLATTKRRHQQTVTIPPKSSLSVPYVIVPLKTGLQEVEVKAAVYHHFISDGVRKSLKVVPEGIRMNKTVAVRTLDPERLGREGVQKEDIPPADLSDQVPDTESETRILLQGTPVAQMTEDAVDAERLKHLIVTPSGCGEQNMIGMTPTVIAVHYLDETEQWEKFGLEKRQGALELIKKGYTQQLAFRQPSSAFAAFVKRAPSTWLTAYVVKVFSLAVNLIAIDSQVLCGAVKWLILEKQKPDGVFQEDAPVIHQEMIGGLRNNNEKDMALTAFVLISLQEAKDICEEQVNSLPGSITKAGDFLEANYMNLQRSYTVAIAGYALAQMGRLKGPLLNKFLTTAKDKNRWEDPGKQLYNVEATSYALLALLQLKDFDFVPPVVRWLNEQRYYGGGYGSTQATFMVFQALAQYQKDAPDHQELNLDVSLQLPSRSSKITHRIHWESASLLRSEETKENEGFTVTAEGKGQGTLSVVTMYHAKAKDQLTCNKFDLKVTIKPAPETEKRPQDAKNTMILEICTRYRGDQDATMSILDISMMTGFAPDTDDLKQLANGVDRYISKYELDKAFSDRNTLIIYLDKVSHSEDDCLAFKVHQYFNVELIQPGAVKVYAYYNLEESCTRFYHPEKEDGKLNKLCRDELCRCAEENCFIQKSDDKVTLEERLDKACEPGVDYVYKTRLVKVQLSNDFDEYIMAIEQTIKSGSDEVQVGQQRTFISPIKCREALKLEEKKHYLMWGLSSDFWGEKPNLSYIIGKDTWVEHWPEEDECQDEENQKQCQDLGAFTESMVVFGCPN
Assay: cell-based or functional assay
Positions of bridges follow the written chain, without caps; N, C: chain ends. Non-standard residues stand in square brackets, D forms with d. Sar = CNCC(=O)O
measured.property: inhibition of hemolysis IC50

Ac-ICIWQDWGEHRCT-NH2 (disulfide 2-12; SMILES CC[C@H](C)[C@H](NC(C)=O)C(=O)N[C@H]1CSSC[C@@H](C(=O)N[C@H](C(N)=O)[C@@H](C)O)NC(=O)[C@H](CCCNC(=N)N)NC(=O)[C@H](Cc2c[nH]cn2)NC(=O)[C@H](CCC(=O)O)NC(=O)CNC(=O)[C@H](Cc2c[nH]c3ccccc23)NC(=O)[C@H](CC(=O)O)NC(=O)[C@H](CCC(N)=O)NC(=O)[C@H](Cc2c[nH]c3ccccc23)NC(=O)[C@H]([C@@H](C)CC)NC1=O) [Compound 2]: < 100 nM

Please turn your attention to the following entry.
Problem: Quick one: inhibition of hemolysis IC50 for Ac-ICIWQDWGEHRC[Sar]-NH2 (disulfide 2-12; SMILES CC[C@H](C)[C@H](NC(C)=O)C(=O)N[C@H]1CSSC[C@@H](C(=O)N(C)CC(N)=O)NC(=O)[C@H](CCCNC(=N)N)NC(=O)[C@H](Cc2c[nH]cn2)NC(=O)[C@H](CCC(=O)O)NC(=O)CNC(=O)[C@H](Cc2c[nH]c3ccccc23)NC(=O)[C@H](CC(=O)O)NC(=O)[C@H](CCC(N)=O)NC(=O)[C@H](Cc2c[nH]c3ccccc23)NC(=O)[C@H]([C@@H](C)CC)NC1=O) [Compound 13] ?
Result: < 100 nM
